These data points were gathered from ChEMBL document CHEMBL1158898.

# Test system: NUGC
# protocol-text: Cytotoxicity against human NUGC cells at 50 uM
# Type: functional
Quick rule: inhibition at 50 µM of at least 40% means label 1, below that means label 0.

molecule	qualitative-label
C=C1CC[C@@]2(OC1)O[C@H]1C[C@H]3[C@@H]4CC[C@]5(O)[C@@H](O)[C@@H](O)[C@@H](O)[C@@H](O)[C@]5(C)[C@H]4CC[C@]3(C)[C@H]1[C@@H]2C	label 1
C=C1CC[C@@]2(OC1)O[C@H]1C[C@H]3[C@@H]4CC[C@]5(O)C[C@@H](O)[C@@H](O)[C@@H](O)[C@]5(C)[C@H]4CC[C@]3(C)[C@H]1[C@@H]2C [TUPICHIGENIN A]	label 1
CC(=O)C1=CC[C@H]2[C@@H]3CC=C4C[C@H](O)C[C@@H](O)[C@]4(C)[C@H]3CC[C@]12C [TUPIPREGNENOLONE]	label 0

Now turn to the next molecule.
Query :: Has C=C1CC[C@@]2(OC1)O[C@H]1C[C@H]3[C@@H]4CC[C@]5(O)C[C@@H](OC(C)=O)[C@@H](OC(C)=O)[C@@H](OC(C)=O)[C@]5(C)[C@H]4CC[C@]3(C)[C@H]1[C@@H]2C [TUPICHIGENIN AA] a recorded inhibition at 50 µM greater than or equal to 40%?
Result :: label 1

---

# Test system: NUGC
# protocol-text: Cytotoxicity against human NUGC cells at 50 uM
# Format: functional
Parameter: inhibition at 50 µM. Scope: all listed entries.
A complete answer gives the number and then names the unit.

compound	inhibition at 50 µM
C=CCc1ccc(O)c(O)c1 [HYDROXYCHAVICOL]	96%
C=C1CC[C@@]2(OC1)O[C@H]1C[C@H]3[C@@H]4CC[C@]5(O)C[C@@H](O)[C@@H](OC(C)=O)[C@@H](OC(C)=O)[C@]5(C)[C@H]4CC[C@]3(C)[C@H]1[C@@H]2C [TUPICHIGENIN AC]	40%
C=C1CC[C@@]2(OC1)O[C@H]1C[C@H]3[C@@H]4CC[C@]5(O)[C@@H](O)[C@@H](O)C[C@@H](O)[C@]5(C)[C@H]4CC[C@]3(C)[C@H]1[C@@H]2C [RANMOGENIN A]	80%

Query :: Quick check: inhibition at 50 µM of COc1ccc2c(c1C)O[C@H](c1ccc(O)cc1)[C@H](O)C2 [TUPICHINOL A] ?
Result :: 30%
